TARGET: androgen receptor (AR) (Homo sapiens, UniProt P10275, T878A)
Construct: LNCaP cells were transiently transfected with the PSA (6.1 kb)-luciferase reporter for 24 h; endogenous in cells; host or cells: LNCaP
Sequence (P10275 1-920 T878A): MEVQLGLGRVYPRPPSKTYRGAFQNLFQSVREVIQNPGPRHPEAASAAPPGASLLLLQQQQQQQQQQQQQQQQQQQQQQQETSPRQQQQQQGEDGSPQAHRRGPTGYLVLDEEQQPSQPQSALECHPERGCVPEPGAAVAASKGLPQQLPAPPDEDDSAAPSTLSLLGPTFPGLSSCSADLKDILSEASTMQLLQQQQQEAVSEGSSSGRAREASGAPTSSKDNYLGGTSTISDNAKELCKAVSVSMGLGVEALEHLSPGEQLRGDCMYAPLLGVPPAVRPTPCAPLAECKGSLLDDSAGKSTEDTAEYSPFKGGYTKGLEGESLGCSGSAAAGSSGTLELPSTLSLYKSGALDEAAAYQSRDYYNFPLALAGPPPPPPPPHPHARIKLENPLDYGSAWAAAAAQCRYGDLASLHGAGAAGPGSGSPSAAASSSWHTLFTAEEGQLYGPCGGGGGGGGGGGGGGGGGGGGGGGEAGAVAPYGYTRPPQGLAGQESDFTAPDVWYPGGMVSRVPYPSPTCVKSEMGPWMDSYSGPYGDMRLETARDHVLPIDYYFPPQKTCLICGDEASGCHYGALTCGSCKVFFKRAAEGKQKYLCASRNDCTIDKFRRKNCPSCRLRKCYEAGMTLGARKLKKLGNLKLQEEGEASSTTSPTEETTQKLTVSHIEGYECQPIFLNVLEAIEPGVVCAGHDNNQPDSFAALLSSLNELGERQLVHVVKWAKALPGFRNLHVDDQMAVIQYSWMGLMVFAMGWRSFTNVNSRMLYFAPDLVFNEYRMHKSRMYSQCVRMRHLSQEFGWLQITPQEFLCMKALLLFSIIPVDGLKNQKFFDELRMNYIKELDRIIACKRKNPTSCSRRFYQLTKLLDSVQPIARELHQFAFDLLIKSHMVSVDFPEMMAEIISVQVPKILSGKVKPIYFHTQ
ASSAY NOTES: Androgen-induced PSA (6.1 kb)-luciferase reporter assay in LNCaP cells
Assay type: cell-based
MEASUREMENT CONTEXT: LNCaP cells transfected with PSA (6.1 kb)-luciferase reporter, R1881 1 nM, 24 h; read-out: PSA-Luc IC50 Range
Reported IC50 values follow for various compounds

The compound CC(C)(c1ccc(NC(=O)c2coc(NS(C)(=O)=O)n2)cc1)c1cc(Cl)c(OCCCl)c(Cl)c1 [Compound A49] showed IC50 equal to > 2000 nM

The compound CC(C)(c1ccc(OCc2ocnc2S(C)(=O)=O)cc1)c1cc(Cl)c(OCC(Cl)CO)c(Cl)c1 (stereo not shown) [Compound A97] showed IC50 equal to < 500 nM

The compound CSc1nc(C)c(COc2ccc(C(C)(C)c3cc(Cl)c(OCCCl)c(C#N)c3)cc2)o1 [Compound A119] showed IC50 equal to < 500 nM

The compound CC(C)(c1ccc(OCc2cc(NS(C)(=O)=O)ccn2)cc1)c1cc(Cl)c(OCCCl)c(C#N)c1 [Compound A196] showed IC50 equal to 500 to 2000 nM

---

Reported half-life at 1 μM values follow for various compounds
ASSAY NOTES: Microsomal stability assay, rat liver microsomes
Format: in vitro ADME
MEASUREMENT CONTEXT: pH 7.4, read-out: Liver microsome T½ (min) Rat

Take a look at these entries with their results.
CC(C)(c1ccc(OCc2coc(NS(C)(=O)=O)n2)cc1)c1cc(Cl)c(OCCCl)c(Cl)c1 ... 12 min
CC(C)(c1ccc(OCc2ccnc(NS(C)(=O)=O)n2)cc1)c1cc(Cl)c(OCCCl)c(Cl)c1 ... > 120 min
CC(C)(c1ccc(OCc2ocnc2S(C)(=O)=O)cc1)c1cc(Cl)c(OCCCl)c(C#N)c1 ... 23 min
CC(C)(c1ccc(OCc2ocnc2S(C)(=O)=O)cc1)c1cc(Cl)c(OCCCl)c(Cl)c1 ... 64 min
CC(C)(c1ccc(OCc2ccnc(NS(C)(=O)=O)n2)cc1)c1cc(Cl)c(OCCCl)c(C#N)c1 ... > 120 min

The compound CNC(=O)c1ccc(N2C(=S)N(c3ccc(C#N)c(C(F)(F)F)c3)C(=O)C2(C)C)cc1F [Enzalutamide, enzalutamide, reference compound] showed half-life at 1 μM equal to > 120 min

The compound "CC(C)(c1ccc(OCc2ncc(S(C)(=O)=O)s2)cc1)c1cc(Cl)c(OCCCl)c(C#N)c1" showed half-life at 1 μM equal to 83 min

---

ASSAY NOTES: In vivo pharmacokinetics in plasma after oral gavage (PO) in male CD-1 mice
MEASUREMENT CONTEXT: mouse; single PO dose 5 mg/kg, male CD-1 mice, plasma
Experimental: The purpose of this study is to determine the pharmacokinetics of the tested compounds in plasma, following oral gavage administration (PO) to male CD-1 mice. Animal Husbandry: Animals were group housed during acclimation and the study. […] Temperature and relative humidity were monitored daily. […] Dose Administration: the dose formulations were administered via oral gavage per facility SOPs. The dose volume were determined by the animals' body weight collected on the morning of dosing day […]
// returns criterion not met unless AUC(0-t) is strictly below 30000 ng·h/mL, in which case criterion met

Reference set (5 entries):
C[C@H](Oc1ccc(C(C)(C)c2cc(Cl)c(OCCCl)c(C#N)c2)cc1)c1ccnc(NS(C)(=O)=O)n1 (single isomer, unassigned) ... criterion not met
Cc1cc(C(C)(C)c2ccc(OCc3ocnc3S(C)(=O)=O)cc2)cc(C#N)c1OCCCl ... criterion met
CC(C)(c1ccc(OCc2ocnc2S(C)(=O)=O)cc1)c1cc(Cl)c(OCCCl)c(C#N)c1 ... criterion met
CCS(=O)(=O)Nc1nccc(COc2ccc(C(C)(C)c3cc(Cl)c(OCCCl)c(C#N)c3)cc2)n1 ... criterion not met
Cc1cnc(NS(C)(=O)=O)nc1COc1ccc(C(C)(C)c2cc(Cl)c(OCCCl)c(C#N)c2)cc1 ... criterion met

Attention now shifts to the item below.
Problem: Input "CCS(=O)(=O)Nc1nc(COc2ccc(C(C)(C)c3cc(Cl)c(OCCCl)c(C#N)c3)cc2)co1" ; condition: AUC(0-t) strictly below 30000 ng·h/mL. Does it hold?
Solution: criterion met

---

Test system: LN-CaP95 cells
ASSAY NOTES: Cell proliferation assay, LNCaP95 (BrdU incorporation)
Assay type: cell-based
MEASUREMENT CONTEXT: LNCaP-95, read-out: Cellular Proliferation/Viability IC50 (μM) LNCaP95
Protocol: Cell proliferation/viability was measured in LNCaP and PC3 cells with Alamar blue, and proliferation was measured in LN-CaP95 cells with BrdU incorporation. In LNCaP cells, AR specific proliferation is calculated by measuring the difference between control cells treated with or without 0.1 nM R1881.
ASSAY ENDPOINT: IC50 (µM)
State the answer as a number, implicitly in µM.

CC(C)(c1ccc(OCc2ocnc2S(C)(=O)=O)cc1)c1cc(Cl)c(OCCCl)c(C#N)c1 [Compound A28] ... 6.43

The molecule CC(C)(c1ccc(OCc2ccnc(NS(C)(=O)=O)n2)cc1)c1cc(Cl)c(OCCCl)c(Cl)c1 [Compound A74] showed IC50 equal to 2.65

The molecule CC(C)(c1ccc(OCc2ccnc(NS(C)(=O)=O)n2)cc1)c1cc(Cl)c(OCCCl)c(C#N)c1 [Compound A109] showed IC50 equal to 3.78

The molecule CC(C)(c1ccc(OCc2ocnc2S(C)(=O)=O)cc1)c1cc(Cl)c(OCCCl)c(Cl)c1 [Compound A13] showed IC50 equal to 4

The molecule CC(C)(c1ccc(OC[C@H](O)CNS(C)(=O)=O)cc1)c1cc(Cl)c(OC[C@H](O)CCl)c(Cl)c1 [X, reference compound] showed IC50 equal to 4

---

ASSAY NOTES: In vivo pharmacokinetics in plasma after oral gavage (PO) in male CD-1 mice
MEASUREMENT CONTEXT: mouse; single PO dose 5 mg/kg, male CD-1 mice, plasma
ASSAY ENDPOINT: AUC(0-t) (ng·h/mL)
State the answer as a number, implicitly in ng·h/mL.

CC(C)(c1ccc(OCc2coc(NS(C)(=O)=O)n2)cc1)c1cc(Cl)c(OCCCl)c(Cl)c1 ... 12800
CC(C)(c1ccc(OCc2ncc(S(C)(=O)=O)o2)cc1)c1cc(Cl)c(OCCCl)c(Cl)c1 ... 11900
CC(C)(c1ccc(OCc2ncc(S(C)(=O)=O)s2)cc1)c1cc(Cl)c(OCCCl)c(C#N)c1 ... 32900

The compound "CC(C)(c1ccc(OCc2ccnc(NS(C)(=O)=O)n2)cc1)c1cc(Cl)c(OCCCl)c(Cl)c1" showed AUC(0-t) equal to 72700

---

ASSAY NOTES: Hepatocyte stability assay, mouse hepatocytes
Assay type: in vitro ADME
MEASUREMENT CONTEXT: mouse, cryopreserved hepatocytes, 1 μM compound, 0.5 million cells/mL, 37° C., read-out: MH +/− NADPH: Clint (μL/min/million cells)
Reported hepatocyte CLint at 1 μM values follow for various compounds

Take a look at these entries with their results.
CC(C)(c1ccc(OCc2cnc(S(C)(=O)=O)s2)cc1)c1cc(Cl)c(OCCCl)c(C#N)c1 [Compound A149] ... ≥ 18 µL/min/1e6 cells
CC(C)(c1ccc(OCc2cncnc2NS(C)(=O)=O)cc1)c1cc(Cl)c(OCCCl)c(C#N)c1 [Compound A148] ... < 4 µL/min/1e6 cells
CC(C)S(=O)(=O)c1ncc(COc2ccc(C(C)(C)c3cc(Cl)c(OCCCl)c(C#N)c3)cc2)o1 [Compound A142] ... ≥ 18 µL/min/1e6 cells
CC(C)(c1ccc(OCc2nc(C#N)cs2)cc1)c1cc(Cl)c(OCCCl)c(C#N)c1 [Compound A172] ... < 4 µL/min/1e6 cells
CC(=O)NN1C(=O)N(c2ccc(C(C)(C)c3cc(Cl)c(OCCCl)c(Cl)c3)cc2)C(=O)C1(C)C [Compound B5] ... 4 to 18 µL/min/1e6 cells

The compound CC(C)(c1ccc(OCc2cccc(NS(C)(=O)=O)n2)cc1)c1cc(Cl)c(OCCCl)c(C#N)c1 [Compound A194] showed hepatocyte CLint at 1 μM equal to < 4 µL/min/1e6 cells

The compound CC(C)(c1ccc(OCc2ocnc2S(C)(=O)=O)cc1)c1cc(Cl)c(OCCCl)c(Cl)c1 [Compound A13] showed hepatocyte CLint at 1 μM equal to 4 to 18 µL/min/1e6 cells

The compound CC(N)(c1ccc(OCc2ocnc2S(C)(=O)=O)cc1)c1cc(Cl)c(OCCCl)c(C#N)c1 (stereo not drawn) [Compound A105] showed hepatocyte CLint at 1 μM equal to ≥ 18 µL/min/1e6 cells

The compound CC(C)(c1ccc(OCc2cc(CN)nc(NS(C)(=O)=O)n2)cc1)c1cc(Cl)c(OCCCl)c(C#N)c1 [Compound A164] showed hepatocyte CLint at 1 μM equal to < 4 µL/min/1e6 cells

The compound Cc1nc(NS(C)(=O)=O)nc(COc2ccc(C(C)(C)c3cc(Cl)c(OCCCl)c(C#N)c3)cc2)c1C [Compound A123] showed hepatocyte CLint at 1 μM equal to 4 to 18 µL/min/1e6 cells

Taken from patent US11059795B2.
